Target: HE4-GST (human) (UniProt Q14508)
Sequence: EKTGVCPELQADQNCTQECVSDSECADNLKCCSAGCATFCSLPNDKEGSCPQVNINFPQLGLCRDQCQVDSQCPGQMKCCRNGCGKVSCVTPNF
Test: fluorescence anisotropy
Conditions: TGK: 25 mM Tris, 192 mM glycine, 5 mM KH2PO4, pH 8.3, 25 C, no divalent cations; APCE 10 nM DNA, 1 mg/mL BSA; anisotropy 0.1 mg/mL BSA, HE4-GST 0-750 nM
assay-metric: pKd
Friendly reminder that pKd comes from taking -log10 of the concentration in mol/L.

Endpoint output: pKd of ATGGTCGCAAGAACTGAGAATTTAC [D3] . Value? 4.59

meta.source: paper PMC4551533
